SUBJECT OF TEST: human GCGR (Homo sapiens, UniProt P47871)
Sequence (P47871 26-477): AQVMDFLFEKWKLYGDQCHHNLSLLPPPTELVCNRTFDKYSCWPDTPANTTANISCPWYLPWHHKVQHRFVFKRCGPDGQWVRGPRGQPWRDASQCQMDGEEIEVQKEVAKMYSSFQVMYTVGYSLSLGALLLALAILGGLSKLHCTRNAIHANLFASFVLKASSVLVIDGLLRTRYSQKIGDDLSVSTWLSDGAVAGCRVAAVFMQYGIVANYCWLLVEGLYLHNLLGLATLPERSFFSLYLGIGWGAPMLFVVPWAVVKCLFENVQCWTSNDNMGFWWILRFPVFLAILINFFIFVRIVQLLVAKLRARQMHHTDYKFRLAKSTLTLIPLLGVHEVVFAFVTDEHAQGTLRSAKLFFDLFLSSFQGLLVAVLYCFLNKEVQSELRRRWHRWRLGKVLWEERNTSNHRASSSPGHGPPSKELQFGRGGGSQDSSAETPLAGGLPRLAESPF
ASSAY TEXT: Cellular functional assay, cAMP readout (glucagon-stimulated cAMP, LANCE TR-FRET)
TEST CONTEXT: HEK293 cells stably expressing full-length human GCGR; glucagon 100 pM; IC50 converted to Ki; read-out: Inhibition of cAMP Ki
MEASURED ENDPOINT: log10 of Ki (log10 of the value in nM)
Hey, these are logged values: log10 of Ki, nM being the unit before logging.

See these solved cases before continuing.
> print(dat)
                                    compound  measured.endpoint  measurement
 1  Cc1cc(Cl)ccc1-c1ccc2c(cnn2C(CC(C)(C)C)c2ccc(C(=O)NCCC(=O)O)cc2)c1 (centres unmarked) [compound 151]        log10 of Ki         1.95
 2  CCCC(c1ccc(C(=O)NCCC(=O)O)cc1)n1cc2cc(-c3ccc(C(C)(C)C)cc3)ccc2n1 (centres unmarked) [Compound #22]        log10 of Ki         2.90
 3  CC(C)CCC(c1ccc(C(=O)NCCC(=O)O)cc1)n1ncc2cc(-c3ccc(C(C)(C)C)cc3)ccc21 (centres unmarked) [Compound #23]        log10 of Ki         2.16
 4  Cc1cc(Cl)ccc1-c1ccc2c(cnn2C(CC2CCCCC2)c2ccc(C(=O)NCCC(=O)O)cc2)c1 (centres unmarked) [compound 194]        log10 of Ki         2.32
 5  CC(C)CC(c1ccc(C(=O)NCCC(=O)O)cc1)n1ncc2cc(-c3ccccc3)ccc21 (centres unmarked) [Compound #4]        log10 of Ki         3.04
 6  Cc1ccc(-c2ccc3c(cnn3C(CC(C)C)c3ccc(C(=O)NCCC(=O)O)cc3)c2C)c(C)c1 (centres unmarked) [Compound #177]        log10 of Ki         2.69
 7  O=C(O)CCNC(=O)c1ccc(C(CCC2CCC2)n2cc3cc(-c4ccc(C(F)(F)F)cc4)ccc3n2)cc1 (centres unmarked) [Compound #215]        log10 of Ki         2.32
 8  O=C(O)CCNC(=O)c1ccc(C(c2ccc(C(F)(F)F)cc2)n2ncc3cc(-c4ccc(C(F)(F)F)cc4)ccc32)cc1 (centres unmarked) [Compound #101]        log10 of Ki         2.90
 9  CC(c1ccc(C(=O)NCCC(=O)O)cc1)n1cc2cc(-c3ccc(C(C)(C)C)cc3)ccc2n1 (centres unmarked) [Compound #161]        log10 of Ki         3.51
10  Cc1c(-c2ccc(C(F)(F)F)cc2Cl)ccc2nn(C(CC(C)C)c3ccc(C(=O)NCCC(=O)O)nc3)cc12 (centres unmarked) [Compound #154]        log10 of Ki         1.11

[in] State, in one line, measured log10 of Ki of O=C(O)CCNC(=O)c1ccc(C(CC2CCCCC2)n2cc3cc(-c4ccc(C(F)(F)F)cc4)ccc3n2)cc1 (centres unmarked) [compound 92]
[out] 1.80

[in] State, in one line, measured log10 of Ki of Cc1cc2c(cnn2[C@H](CC(C)C)c2ccc(C(=O)NCCC(=O)O)cc2)cc1-c1ccc(C(F)(F)F)cc1 [Compound #229]
[out] 3.19

[in] State, in one line, measured log10 of Ki of CC(C)CC(c1ccc(C(=O)NCCC(=O)O)nc1)n1ncc2cc(-c3cc4ccccc4o3)ccc21 (centres unmarked) [Compound #79]
[out] 2.70

###

SUBJECT OF TEST: human GCGR (Homo sapiens, UniProt P47871)
ASSAY TEXT: Cellular functional assay, cAMP readout (glucagon-stimulated cAMP, LANCE TR-FRET)
TEST CONTEXT: HEK293 cells stably expressing full-length human GCGR; glucagon 100 pM; IC50 converted to Ki; read-out: Inhibition of cAMP Ki
Quick list: Ki per entry.
Enter your answer as a number in nM; do not include the unit.

> print(dat)
                                   molecule  measured.endpoint  measurement
1  CC(C)CC(c1ccc(C(=O)NCCC(=O)O)cc1)n1cc2cc(-c3ccc(C(F)(F)F)cc3Cl)ccc2n1 (stereo not shown)                 Ki          150

[in] State, in one line, measured Ki of CC(C)CC(c1ccc(C(=O)NCCC(=O)O)cc1)n1cc2cc(-c3cnc4ccccc4c3)ccc2n1 (stereo not shown)
[out] 1000

[in] State, in one line, measured Ki of CC(C)CC(c1ccc(C(=O)NCCC(=O)O)nc1)n1ncc2cc(-c3ccc(C(C)(C)C)cc3)ccc21 (stereo not shown)
[out] 430

###

SUBJECT OF TEST: human GCGR (Homo sapiens, UniProt P47871)
ASSAY TEXT: Cellular functional assay, cAMP readout (glucagon-stimulated cAMP, LANCE TR-FRET)
TEST CONTEXT: HEK293 cells stably expressing full-length human GCGR; glucagon 100 pM; IC50 converted to Ki; read-out: Inhibition of cAMP Ki
MEASURED ENDPOINT: pKi
// pKi here means minus log10 of the molar concentration (mol/L)

> print(dat)
                                   compound  measurement
1  COc1ccc2cc(-c3ccc4c(cnn4C(CC(C)C)c4ccc(C(=O)NCCC(=O)O)cc4)c3)ccc2c1 (centres unmarked)         6.10
2  CC(C)CC(c1ccc(C(=O)NCCC(=O)O)cc1)n1ncc2cc(-c3ccsc3)ccc21 (centres unmarked)         5.54
3  Cc1cc2nn(C(CC(C)C)c3ccc(C(=O)NCCC(=O)O)cc3)cc2cc1-c1ccc(C(F)(F)F)cc1 (centres unmarked)         6.71
4  Cc1cc(Cl)ccc1-c1cc2cnn(C(CC(C)C)c3ccc(C(=O)NCCC(=O)O)nc3)c2cc1Cl (centres unmarked)         6.26
5  O=C(O)CCNC(=O)c1ccc(C(CCC(F)(F)F)n2ncc3cc(-c4ccc(C(F)(F)F)cc4)ccc32)cc1 (centres unmarked)         6.63

[in] State, in one line, measured pKi of O=C(O)CCNC(=O)c1ccc(C(C2CCCCC2)n2cc3cc(-c4ccc(C(F)(F)F)cc4Cl)ccc3n2)cc1 (centres unmarked)
[out] 7.08

[in] State, in one line, measured pKi of Cc1c(-c2ccc(C(C)(C)C)cc2)ccc2c1cnn2C(CC(C)C)c1ccc(C(=O)NCCC(=O)O)cc1 (centres unmarked)
[out] 7.04

[in] State, in one line, measured pKi of "COc1c(-c2ccc(C(F)(F)F)cc2Cl)ccc2nn([C@@H](CC(C)C)c3ccc(C(=O)NCCC(=O)O)cc3)cc12"
[out] 7.46

[in] State, in one line, measured pKi of CC(C)CC(c1ccc(C(=O)NCCC(=O)O)cc1)n1cc2cc(-c3cc4ccccc4s3)ccc2n1 (centres unmarked)
[out] 7.24

[in] State, in one line, measured pKi of CCCCCCC(c1ccc(C(=O)NCCC(=O)O)cc1)n1ncc2cc(-c3ccc(Cl)cc3C)ccc21 (centres unmarked)
[out] 6.68

[in] State, in one line, measured pKi of Cc1cc(Cl)ccc1-c1ccc2c(cnn2C(CCC2CCCCC2)c2ccc(C(=O)NCCC(=O)O)cc2)c1 (centres unmarked)
[out] 6.60

[in] State, in one line, measured pKi of CCCCCC(c1ccc(C(=O)NCCC(=O)O)cc1)n1cc2cc(-c3ccc(C(F)(F)F)cc3)ccc2n1 (centres unmarked)
[out] 6.88

[in] State, in one line, measured pKi of CC(C)CC(c1ccc(C(=O)NCCC(=O)O)cc1)n1ncc2cc(-c3ccc4ncccc4c3)ccc21 (centres unmarked)
[out] 6.10

###

SUBJECT OF TEST: human GCGR (Homo sapiens)
ASSAY TEXT: Cellular functional assay, cAMP readout (glucagon-stimulated cAMP, LANCE TR-FRET)
TEST CONTEXT: HEK293 cells stably expressing full-length human GCGR; glucagon 100 pM; IC50 converted to Ki; read-out: Inhibition of cAMP Ki
Quick list: pKi per entry.
// pKi here means minus log10 of the molar concentration (mol/L)

> print(dat)
                                   compound  measured.endpoint  measurement
1  Cc1cc(C(F)(F)F)ccc1-c1ccc2c(cnn2C(CC(C)C)c2ccc(C(=O)NCCC(=O)O)nc2)c1C (stereo not shown)                pKi         7.19
2  Cc1cc(C(F)(F)F)ccc1-c1ccc2nn(C(CC(C)C)c3ccc(C(=O)NCCC(=O)O)cc3)cc2c1C (stereo not shown)                pKi         7.55
3  Cc1cc(Cl)ccc1-c1ccc2nn(C(CC(C)C)c3ccc(C(=O)NCCC(=O)O)cc3)cc2c1C (stereo not shown)                pKi         7.60
4  CC(C)CC(c1ccc(C(=O)NCCC(=O)O)cc1)n1ncc2cc(-c3ccc(C(C)(C)C)cc3)ccc21 (single isomer, unassigned)                pKi         6.33
5  CCCCCCC(c1ccc(C(=O)NCCC(=O)O)cc1)n1ncc2cc(-c3ccc(C(C)(C)C)cc3)ccc21 (stereo not shown)                pKi         6.70

[in] State, for human GCGR (Homo sapiens), measured pKi of the compound listed here: Cc1cc2c(cnn2C(CC(C)C)c2ccc(C(=O)NCCC(=O)O)cc2)cc1-c1ccc(C(F)(F)F)cc1 (stereo not shown)
[out] 6.99

[in] State, for human GCGR (Homo sapiens), measured pKi of the compound listed here: Cc1ccc2sc(-c3ccc4nn(C(CC(C)C)c5ccc(C(=O)NCCC(=O)O)cc5)cc4c3)cc2c1 (stereo not shown)
[out] 6.59

The measurements presented in this section are drawn from patent US10000473B2.
